- TEST SUMMARY: Clearance in human hepatocytes assessed per million cells at 1 uM after 5 to 90 mins by LC-MS/MS analysis
- Type: ADME, cell-based, Hepatocyte
- TEST CONDITIONS: read-out: CLH
READOUT TYPE: hepatocyte CLint at 1 µM (µL/min/1e6 cells)

Looking up O=C(CCCCCNc1c(Nc2ccc(C(F)(F)F)cc2)c(=O)c1=O)NO , I found its hepatocyte CLint at 1 µM recorded as 11

Lab note: Cc1ccc(Nc2c(NCCCCCC(=O)NO)c(=O)c2=O)cc1 gave hepatocyte CLint at 1 µM of 7.2

The molecule identified as CC(CCCCC(=O)NO)Nc1c(Nc2ccc(C(F)(F)F)cc2)c(=O)c1=O (racemic) registered its hepatocyte CLint at 1 µM at 21

Data point: Cc1cccc(Nc2c(NCCCCCC(=O)NO)c(=O)c2=O)c1 ; hepatocyte CLint at 1 µM = 18

Notebook: O=C(CCCCC(Cc1ccccc1)Nc1c(Nc2ccc(C(F)(F)F)cc2)c(=O)c1=O)NO (racemic) , hepatocyte CLint at 1 µM read as 6.6

1: COc1ccc(Nc2c(NC(C)CCCCC(=O)NO)c(=O)c2=O)cc1 (racemic)
2: C[C@@H](CCCCC(=O)NO)Nc1c(Nc2ccc(N(C)C)cc2)c(=O)c1=O
3: CC(C)(CCCCC(=O)NO)Nc1c(Nc2ccc(C(F)(F)F)cc2)c(=O)c1=O
### Prompt Order the items by recorded hepatocyte CLint at 1 µM; the first position goes to the largest value. Please respond with the labels ordered as the question requires.
### Response 3, 1, 2
